Hey, just so you know, these numbers are from patent US20260200890A1.

target: ADAR1 (Homo sapiens); construct: endogenous in cells; test: ADAR1 Inhibition Assay (IFN fold-induction, Quanti-Luc luminescence, p110 KO A549 dual cells); details: IFN fold-induction vs DMSO, 24 and 48 h
measured attribute: EC50

Q: Given CCOC(=O)c1cc(-c2ccccc2)sc1NC(=O)CN1C(=O)COc2ccc(NS(C)(=O)=O)cc21 , state its recorded EC50.
Result: > 100 µM

Q: Using the record for CCOC(=O)c1cc(-c2ccccc2)[nH]c1NC(=O)CNC(=O)c1cccc(P(=O)(OCC)OCC)c1 , report its EC50.
Result: 50 to 100 µM

Q: Which EC50 value belongs to CCOC(=O)c1cc(-c2ccccc2)sc1NC(=O)CN1C(=O)c2ccc(NS(C)(=O)=O)cc2C1=O ?
Result: > 100 µM

Q: Name the reported EC50 value associated with the compound CCOC(=O)c1cc(-c2ccc(P(=O)(OCC)OCC)cc2)sc1NC(=O)COC(=O)c1cccc(P(=O)(OCC)OCC)c1
Result: > 100 µM

---

target: ADAR1 (Homo sapiens, UniProt P55265); construct: endogenous in cells; test: ADAR1 Inhibition Assay (IFN fold-induction, Quanti-Luc luminescence, p110 KO A549 dual cells); settings: IFN fold-induction vs DMSO, 24 and 48 h
pEC50: −log10 of the molar value.
measured attribute: pEC50

Here are 3 compounds together with their reported answers.
CS(=O)(=O)Nc1cccc(C(=O)OCC(=O)N2CCN(c3ccccc3)C2=S)c1 [Compound 221] :: < 4.00
CCOC(=O)c1cc(-c2ccccc2)sc1NC(=O)COC(=O)c1cc(NS(C)(=O)=O)ccc1F [Compound 129] :: < 4.00
CCOC(=O)c1cc(-c2ccc(O)cc2)sc1NC(=O)COC(=O)c1cccc(NS(C)(=O)=O)c1 [Compound 218] :: < 4.00

Q: Given the entry CS(=O)(=O)Nc1cccc(C(=O)OCc2nc(=O)c3cc(-c4ccccc4)sc3[nH]2)c1 [Compound 241] , report its measured pEC50.
Result: < 4.00

---

Recorded EC50 by entry
Target: ADAR1 (Homo sapiens)
Construct: endogenous in cells
Sequence (P55265 1-1226): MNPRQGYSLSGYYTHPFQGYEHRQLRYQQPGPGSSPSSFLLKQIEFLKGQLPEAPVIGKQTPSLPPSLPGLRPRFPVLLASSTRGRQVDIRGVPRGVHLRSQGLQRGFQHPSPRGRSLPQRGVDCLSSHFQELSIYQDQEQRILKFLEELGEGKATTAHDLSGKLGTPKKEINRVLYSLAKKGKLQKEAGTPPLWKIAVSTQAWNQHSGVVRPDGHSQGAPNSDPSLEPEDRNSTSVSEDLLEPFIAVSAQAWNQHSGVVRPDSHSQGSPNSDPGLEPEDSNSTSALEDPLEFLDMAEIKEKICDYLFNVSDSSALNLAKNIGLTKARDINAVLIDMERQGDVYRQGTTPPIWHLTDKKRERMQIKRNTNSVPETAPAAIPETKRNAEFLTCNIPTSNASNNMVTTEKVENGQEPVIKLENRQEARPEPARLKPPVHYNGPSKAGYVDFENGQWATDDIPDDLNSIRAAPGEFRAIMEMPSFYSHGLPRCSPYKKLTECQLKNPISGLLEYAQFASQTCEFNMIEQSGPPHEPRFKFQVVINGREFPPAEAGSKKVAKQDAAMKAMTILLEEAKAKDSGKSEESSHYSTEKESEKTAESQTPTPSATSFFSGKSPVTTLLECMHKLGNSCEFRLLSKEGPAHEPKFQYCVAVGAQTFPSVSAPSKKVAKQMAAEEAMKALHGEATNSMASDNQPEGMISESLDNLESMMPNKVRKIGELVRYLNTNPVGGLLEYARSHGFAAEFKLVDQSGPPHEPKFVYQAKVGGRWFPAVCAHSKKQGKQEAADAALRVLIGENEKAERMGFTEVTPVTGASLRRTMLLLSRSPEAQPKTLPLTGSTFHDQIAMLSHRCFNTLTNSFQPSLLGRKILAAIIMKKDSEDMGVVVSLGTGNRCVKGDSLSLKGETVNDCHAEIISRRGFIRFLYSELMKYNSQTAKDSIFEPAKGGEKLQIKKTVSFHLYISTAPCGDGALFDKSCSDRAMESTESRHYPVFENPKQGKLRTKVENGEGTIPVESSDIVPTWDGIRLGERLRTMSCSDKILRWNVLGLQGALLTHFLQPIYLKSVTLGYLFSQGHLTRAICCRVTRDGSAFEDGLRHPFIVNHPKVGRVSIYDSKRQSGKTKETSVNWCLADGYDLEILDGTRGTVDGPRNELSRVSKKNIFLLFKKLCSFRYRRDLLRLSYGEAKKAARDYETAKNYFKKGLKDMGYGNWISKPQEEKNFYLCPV
Assay: ADAR1 Inhibition Assay (IFN fold-induction, Quanti-Luc luminescence, p110 KO A549 dual cells)
Details: IFN fold-induction vs DMSO, 24 and 48 h

Consider the reported EC50 for these compounds:
CCOC(=O)c1cc(-c2ccccc2)sc1NC(=O)Cn1nc(-c2cccc(NS(C)(=O)=O)c2)oc1=O :: > 100 µM
CS(=O)(=O)Nc1cccc(C(=O)OCC(=O)Nc2sc(-c3ccccc3)cc2C(=O)OCCOCc2ccccc2)c1 :: > 100 µM
CCOC(=O)c1cc(-c2ccccc2)sc1NC(=O)CC(=O)Nc1cccc(NS(C)(=O)=O)c1 :: 50 to 100 µM
CCOC(=O)c1cc(-c2ccccc2)sc1NC(=O)CS(=O)(=O)c1cccc(NS(C)(=O)=O)c1 :: > 100 µM
CCOC(=O)c1cc(-c2ccccc2)sc1NC(=O)CCc1cccc(NS(C)(=O)=O)c1 :: > 100 µM

Consider now this further compound.
Q: What measured EC50 goes with CCOC(=O)c1cc(-c2ccccc2)sc1NC(=O)c1cnc(-c2cccc(NS(C)(=O)=O)c2)o1 ?
Result: > 100 µM

---

target: ADAR1 (Homo sapiens, UniProt P55265); construct: endogenous in cells; host or cells: p110 KO A549 dual cells; assay: ADAR1 Inhibition Assay (IFN fold-induction, Quanti-Luc luminescence, p110 KO A549 dual cells); assay type: cell-based; conditions: IFN fold-induction vs DMSO, 24 and 48 h
pEC50: −log10 of the molar value.
Each item that follows carries a reported pEC50.

Recorded results for 5 compounds are shown here.
CCOC(=O)c1cc(-c2cc(F)cc(F)c2)sc1NC(=O)COC(=O)c1cccc(S(N)(=O)=O)c1 :: < 4.00
CCOC(=O)c1c(NC(=O)COC(=O)c2cccc(NS(C)(=O)=O)c2)sc(-c2ccccc2)c1C(=O)OCC :: < 4.00
CCOC(=O)c1cc(-c2ccccc2)sc1NC(=O)COC(=O)c1cccc(NC(C)=O)c1 :: < 4.00
CCOC(=O)c1cc(-c2ccccc2)ncc1NC(=O)C1CCN(C(=O)c2cccc(NS(C)(=O)=O)c2)C1 (stereo not drawn) :: < 4.00
COC(=O)c1sc(-c2ccccc2)cc1NC(=O)COC(=O)c1cccc(S(N)(=O)=O)c1 :: 4.00 to 4.30

Q: Request: pEC50, test system ADAR1 (Homo sapiens, UniProt P55265), entry CCOC(=O)c1cc(-c2ccccc2)sc1NC(=O)CNC(=O)c1cccc(S(=O)(=O)N2CCCCC2)c1
Result: < 4.00

Q: Record lookup: for ADAR1 (Homo sapiens, UniProt P55265), what pEC50 belongs to CCOC(=O)c1cc(-c2ccccc2)sc1NC(=O)CN1CCN(S(C)(=O)=O)CC1 ?
Result: < 4.00

Q: Missing value: pEC50, ADAR1 (Homo sapiens, UniProt P55265), entry CCOC(=O)c1cc(-c2ccccc2)sc1S(=O)(=O)N1CCN(S(C)(=O)=O)CC1 . Fill in?
Result: < 4.00

Q: Kindly state the measured pEC50 obtained for CCOC(=O)c1cc(-c2ccccc2)sc1NC(=O)[C@H]1CCN(C(=O)c2cccc(S(=O)(=O)NC(C)=O)c2)C1 with ADAR1 (Homo sapiens, UniProt P55265).
Result: < 4.00

Q: # value lookup — system ADAR1 (Homo sapiens, UniProt P55265), readout pEC50, item CCOC(=O)c1cc(-c2ccccc2)ncc1NC(=O)COC(=O)c1cccc(P(=O)(O)O)c1
Result: < 4.00

Q: Give ADAR1 (Homo sapiens, UniProt P55265) pEC50 for CCOC(=O)c1cc(-c2ccccc2)sc1NC(=O)NNC(=O)c1cccc(NS(C)(=O)=O)c1
Result: < 4.00

Q: Can you look up pEC50 on ADAR1 (Homo sapiens, UniProt P55265) for CCOC(=O)c1cc(-c2ccccc2)sc1NC(=O)COC(=O)c1cc(S(N)(=O)=O)ccc1F ?
Result: < 4.00

Q: State its pEC50 on ADAR1 (Homo sapiens, UniProt P55265): CS(=O)(=O)Nc1cccc(C(=O)OCC(=O)n2cnc3cnc(N)nc32)c1
Result: < 4.00

Q: API: value(readout= pEC50, system= ADAR1 (Homo sapiens, UniProt P55265), query= CCOC(=O)c1cc(-c2ccccc2)sc1NC(=O)COC(=O)c1cccc(P(=O)(O)O)c1 )
Result: < 4.00

Q: # value lookup — system ADAR1 (Homo sapiens, UniProt P55265), readout pEC50, item CCOC(=O)c1cc(-c2ccccc2)sc1NC(=O)CNC(=O)c1cccc(S(N)(=O)=O)c1
Result: < 4.00

Q: Provide the documented pEC50 with ADAR1 (Homo sapiens, UniProt P55265) as the system for COC(=O)c1cc(-c2ccccc2)sc1NC(=O)COC(=O)c1cccc(NS(C)(=O)=O)c1
Result: < 4.00

Q: Provide the documented pEC50 with ADAR1 (Homo sapiens, UniProt P55265) as the system for CCOC(=O)c1cc(-c2ccccc2)sc1NC(=O)COC(=O)c1cccc(NS(=O)(=O)c2ccccc2)c1
Result: < 4.00

Q: Kindly state the measured pEC50 obtained for CCOC(=O)c1cc(-c2ccccc2)sc1NC(=O)CNC(=O)c1ccc(S(N)(=O)=O)cc1 with ADAR1 (Homo sapiens, UniProt P55265).
Result: < 4.00

Q: For the record COC(=O)c1sc(-c2ccccc2)cc1NC(=O)COC(=O)c1cccc(NS(C)(=O)=O)c1 , what value of pEC50 is listed for ADAR1 (Homo sapiens, UniProt P55265)?
Result: ≥ 4.60

Q: Query pEC50 on ADAR1 (Homo sapiens, UniProt P55265) for Cc1cccc(Cl)c1NC(=O)c1csc(NC(=O)c2cccc(S(N)(=O)=O)c2)n1
Result: < 4.00

Q: Notebook entry, ADAR1 (Homo sapiens, UniProt P55265) assay: pEC50 of CCOC(=O)c1cc(-c2ccccc2)sc1NC(=O)COC(=O)c1ccccc1 = ?
Result: < 4.00

Q: Provide the documented pEC50 with ADAR1 (Homo sapiens, UniProt P55265) as the system for CCOC(=O)c1cc(-c2ccccc2)sc1NC(=O)CNC(=O)c1cccc(S(=O)(=O)N(C)C)c1
Result: < 4.00

Q: ADAR1 (Homo sapiens, UniProt P55265) / pEC50 / CS(=O)(=O)Nc1cccc(C(=O)OCC(=O)Nc2sc(-c3ccccc3)cc2C(=O)O)c1 : value?
Result: < 4.00
